system_tested: UniProt:P47895
Sequence (P47895 whole entry): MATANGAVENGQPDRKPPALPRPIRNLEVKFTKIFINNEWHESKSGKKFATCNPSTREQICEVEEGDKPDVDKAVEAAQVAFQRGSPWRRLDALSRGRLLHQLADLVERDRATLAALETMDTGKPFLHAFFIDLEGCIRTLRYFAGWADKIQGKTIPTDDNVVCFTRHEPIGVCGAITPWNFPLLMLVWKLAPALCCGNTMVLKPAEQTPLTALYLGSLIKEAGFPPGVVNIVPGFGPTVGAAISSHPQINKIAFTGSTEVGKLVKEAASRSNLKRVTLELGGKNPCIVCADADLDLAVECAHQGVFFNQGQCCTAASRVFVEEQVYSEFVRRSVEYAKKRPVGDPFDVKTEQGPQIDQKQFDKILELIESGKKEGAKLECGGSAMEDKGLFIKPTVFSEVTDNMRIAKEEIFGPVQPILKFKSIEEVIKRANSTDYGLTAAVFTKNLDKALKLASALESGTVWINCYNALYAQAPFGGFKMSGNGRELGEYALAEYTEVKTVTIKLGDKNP
assay_remarks: Inhibition of ALDH isoenzymes (NAD(P)H formation at 340 nm, purified recombinant enzyme)
conditions: 100-200 nM enzyme, 200 μM NAD+, 100 μM propionaldehyde, pH 7.5, 25° C.
pIC50 listing for selected compounds.
Formally, pIC50 is defined as -log10 of the concentration c, with c in mol/L.

As a guide, the following entries are already answered.
CCn1ncc2c(=O)n(-c3ccccc3)c(SCc3cccc(F)c3)nc21; 6.60
Cn1ncc2c(=O)n(-c3ccccc3)c(SCC(=O)c3ccccc3)nc21; 7.02
Cn1ncc2c(=O)n(-c3ccccc3)c(SCc3ccccc3)nc21; 6.69
Cn1ncc2c(=O)n(-c3ccccc3)c(SCc3cccc(C=O)c3)nc21; 6.12
Cn1ncc2c(=O)n(-c3ccccc3)c(SCc3cccc(C(=O)C(F)(F)F)c3)nc21; 5.76

Quote pIC50 reported for `CC(C)CCSc1nc2c(cnn2C)c(=O)n1-c1ccccc1` please.
6.41

Quote pIC50 reported for `Cn1ncc2c(=O)n(-c3ccccc3)c(SCc3ccc(C=O)cc3)nc21` please.
6.63

Quote pIC50 reported for `COc1cccc(CSc2nc3c(cnn3C)c(=O)n2-c2ccccc2)c1` please.
6.68

Quote pIC50 reported for `CCn1cc2c(=O)n(-c3ccccc3)c(SCc3cccc(F)c3)nc2n1` please.
6.82

Quote pIC50 reported for `CCn1cc2c(=O)n(-c3ccccc3C)c(SCc3cccc(F)c3)nc2n1` please.
5.12

Provenance of the data: patent US11944626B2
